Where do the numbers come from? From ChEMBL document CHEMBL1921668.

systemUnderTest: Phosphatidylinositol 4,5-bisphosphate 3-kinase catalytic subunit gamma isoform (Homo sapiens) (UniProt P48736)
Sequence (P48736 whole entry, looked up, canonical isoform): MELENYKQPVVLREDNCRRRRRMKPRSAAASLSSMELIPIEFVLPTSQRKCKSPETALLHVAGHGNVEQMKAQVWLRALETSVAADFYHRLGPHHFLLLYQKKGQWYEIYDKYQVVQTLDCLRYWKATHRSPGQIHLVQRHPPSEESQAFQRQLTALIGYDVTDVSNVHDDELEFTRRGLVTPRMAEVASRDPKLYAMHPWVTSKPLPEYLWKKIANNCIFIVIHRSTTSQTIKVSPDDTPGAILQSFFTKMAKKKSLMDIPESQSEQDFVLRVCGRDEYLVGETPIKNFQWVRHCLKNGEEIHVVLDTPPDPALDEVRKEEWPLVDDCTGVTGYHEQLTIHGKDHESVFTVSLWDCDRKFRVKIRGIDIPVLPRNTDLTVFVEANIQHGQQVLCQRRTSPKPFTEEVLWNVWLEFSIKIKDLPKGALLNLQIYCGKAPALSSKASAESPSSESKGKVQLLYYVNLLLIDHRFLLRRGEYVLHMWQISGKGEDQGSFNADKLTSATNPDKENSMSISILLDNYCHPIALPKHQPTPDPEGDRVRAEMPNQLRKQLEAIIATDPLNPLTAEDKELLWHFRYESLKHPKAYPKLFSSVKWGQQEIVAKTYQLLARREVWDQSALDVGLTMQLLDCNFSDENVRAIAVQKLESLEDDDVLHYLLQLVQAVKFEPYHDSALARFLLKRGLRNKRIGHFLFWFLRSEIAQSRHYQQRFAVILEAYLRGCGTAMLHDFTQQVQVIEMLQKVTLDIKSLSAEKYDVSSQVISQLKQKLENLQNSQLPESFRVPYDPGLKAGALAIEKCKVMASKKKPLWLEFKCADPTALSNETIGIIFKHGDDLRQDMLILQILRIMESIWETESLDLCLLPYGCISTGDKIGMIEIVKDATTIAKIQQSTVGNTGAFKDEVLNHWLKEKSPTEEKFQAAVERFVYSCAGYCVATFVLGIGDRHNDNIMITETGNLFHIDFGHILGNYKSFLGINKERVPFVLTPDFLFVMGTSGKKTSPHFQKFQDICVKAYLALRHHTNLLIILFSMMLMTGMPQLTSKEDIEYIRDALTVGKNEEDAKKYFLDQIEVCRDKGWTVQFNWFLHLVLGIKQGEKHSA
protocol: Inhibition of PI3Kgamma assessed as enzyme activity relative to control
Set-up: scale not given: the % may be the effect or the level left
measuredAttribute: Activity (%)

These recorded examples may help you get a feel for the data.
Nc1ncc(-c2cncc(NS(=O)(=O)c3ccc([N+](=O)[O-])cc3)c2)cn1 :: 6.7
Nc1ncc(-c2cncc(NS(=O)(=O)c3ccccc3)c2)cn1 :: 24
Nc1ncc(-c2cncc(NS(=O)(=O)c3ccc(F)cc3F)c2)cn1 :: 7.2
CC(=O)Nc1cncc(-c2cnc(N)nc2)c1 :: 98
CS(=O)(=O)Nc1cncc(-c2cnc(N)nc2)c1 :: 43

I = Nc1ncc(-c2cncc(NS(=O)(=O)c3cccc(C(F)(F)F)c3)c2)cn1
II = COc1ccc(S(=O)(=O)Nc2cncc(-c3cnc(N)nc3)c2)cc1
III = Nc1cncc(-c2cnc(N)nc2)c1
IV = Cc1ccc(S(=O)(=O)Nc2cncc(-c3cnc(N)nc3)c2)cc1[N+](=O)[O-]
**Q:** Rank by Activity (largest to smallest). Return value: ordered labels per request.
**A:** III, II, I, IV
(III: 100%, II: 20%, I: 9.6%, IV: 5.3%)

a = Nc1ncc(-c2cncc(NS(=O)(=O)c3ccc4ccccc4c3)c2)cn1
b = Cc1ccc(S(=O)(=O)Nc2cncc(-c3cnc(N)nc3)c2)cc1
**Q:** Compare Activity: is it lower for a or for b ? Identify your selection by its label.
**A:** b

====

systemUnderTest: Phosphatidylinositol 4,5-bisphosphate 3-kinase catalytic subunit alpha isoform (Homo sapiens)
Sequence (P42336 whole entry, canonical isoform): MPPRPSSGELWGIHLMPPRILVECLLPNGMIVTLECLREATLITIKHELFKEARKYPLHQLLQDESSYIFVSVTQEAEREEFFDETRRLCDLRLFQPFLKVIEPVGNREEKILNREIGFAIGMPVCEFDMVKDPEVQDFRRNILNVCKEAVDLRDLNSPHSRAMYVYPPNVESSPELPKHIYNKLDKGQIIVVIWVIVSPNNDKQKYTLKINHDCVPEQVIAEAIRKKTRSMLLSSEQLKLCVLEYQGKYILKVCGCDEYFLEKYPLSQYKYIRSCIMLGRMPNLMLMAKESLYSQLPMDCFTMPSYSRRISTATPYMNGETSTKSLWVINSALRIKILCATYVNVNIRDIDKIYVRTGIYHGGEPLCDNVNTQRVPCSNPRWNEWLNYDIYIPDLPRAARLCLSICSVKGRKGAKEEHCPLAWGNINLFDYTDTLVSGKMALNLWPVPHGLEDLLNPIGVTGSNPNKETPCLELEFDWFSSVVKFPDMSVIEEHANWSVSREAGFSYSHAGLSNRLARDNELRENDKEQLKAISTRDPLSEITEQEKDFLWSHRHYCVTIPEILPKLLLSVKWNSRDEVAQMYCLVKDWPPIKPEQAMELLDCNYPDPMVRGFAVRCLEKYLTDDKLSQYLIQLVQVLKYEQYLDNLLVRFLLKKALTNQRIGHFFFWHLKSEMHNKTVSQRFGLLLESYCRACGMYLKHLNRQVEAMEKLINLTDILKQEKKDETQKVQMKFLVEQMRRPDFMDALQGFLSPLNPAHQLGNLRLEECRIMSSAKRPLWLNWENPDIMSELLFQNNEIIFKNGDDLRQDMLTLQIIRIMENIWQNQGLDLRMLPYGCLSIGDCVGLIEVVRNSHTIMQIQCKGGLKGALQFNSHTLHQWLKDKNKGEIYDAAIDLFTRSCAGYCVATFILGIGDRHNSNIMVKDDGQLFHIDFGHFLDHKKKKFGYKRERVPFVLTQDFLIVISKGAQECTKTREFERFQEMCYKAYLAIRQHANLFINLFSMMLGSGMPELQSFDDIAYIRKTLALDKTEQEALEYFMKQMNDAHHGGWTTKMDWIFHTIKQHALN
protocol: Inhibition of PI3Kalpha assessed as enzyme activity at 10 uM relative to control
Parameters: scale not given: the % may be the effect or the level left
measuredAttribute: Activity (%)

The examples below pair each entry with its known result.
Nc1ncc(-c2cncc(NS(=O)(=O)c3ccc4ccccc4c3)c2)cn1 :: 92
Nc1ncc(-c2cncc(NS(=O)(=O)c3ccc([N+](=O)[O-])cc3)c2)cn1 :: 18
COc1ccc(S(=O)(=O)Nc2cncc(-c3cnc(N)nc3)c2)cc1 :: 87
CC(=O)Nc1cncc(-c2cnc(N)nc2)c1 :: 97
Nc1ncc(-c2cncc(NS(=O)(=O)c3cccc(C(F)(F)F)c3)c2)cn1 :: 30
Nc1ncc2cc(-c3cncc(NS(=O)(=O)c4ccccc4)c3)ccc2n1 :: 0

I = CC(=O)Nc1ncc(-c2cncc(NS(=O)(=O)c3ccccc3)c2)cn1
II = Cc1ccc(S(=O)(=O)Nc2cncc(-c3cnc(N)nc3)c2)cc1
III = CNc1ncc(-c2cncc(NS(=O)(=O)c3ccccc3)c2)cn1
**Q:** In this exercise, place the 3 compounds in ascending sequence of their recorded Activity. Kindly provide the labels arranged according to the requested ordering.
**A:** II, III, I
(II: 17%, III: 39%, I: 100%)

====

systemUnderTest: Phosphatidylinositol 4,5-bisphosphate 3-kinase catalytic subunit beta isoform (Homo sapiens)
Sequence (P42338 whole entry, looked up, canonical isoform): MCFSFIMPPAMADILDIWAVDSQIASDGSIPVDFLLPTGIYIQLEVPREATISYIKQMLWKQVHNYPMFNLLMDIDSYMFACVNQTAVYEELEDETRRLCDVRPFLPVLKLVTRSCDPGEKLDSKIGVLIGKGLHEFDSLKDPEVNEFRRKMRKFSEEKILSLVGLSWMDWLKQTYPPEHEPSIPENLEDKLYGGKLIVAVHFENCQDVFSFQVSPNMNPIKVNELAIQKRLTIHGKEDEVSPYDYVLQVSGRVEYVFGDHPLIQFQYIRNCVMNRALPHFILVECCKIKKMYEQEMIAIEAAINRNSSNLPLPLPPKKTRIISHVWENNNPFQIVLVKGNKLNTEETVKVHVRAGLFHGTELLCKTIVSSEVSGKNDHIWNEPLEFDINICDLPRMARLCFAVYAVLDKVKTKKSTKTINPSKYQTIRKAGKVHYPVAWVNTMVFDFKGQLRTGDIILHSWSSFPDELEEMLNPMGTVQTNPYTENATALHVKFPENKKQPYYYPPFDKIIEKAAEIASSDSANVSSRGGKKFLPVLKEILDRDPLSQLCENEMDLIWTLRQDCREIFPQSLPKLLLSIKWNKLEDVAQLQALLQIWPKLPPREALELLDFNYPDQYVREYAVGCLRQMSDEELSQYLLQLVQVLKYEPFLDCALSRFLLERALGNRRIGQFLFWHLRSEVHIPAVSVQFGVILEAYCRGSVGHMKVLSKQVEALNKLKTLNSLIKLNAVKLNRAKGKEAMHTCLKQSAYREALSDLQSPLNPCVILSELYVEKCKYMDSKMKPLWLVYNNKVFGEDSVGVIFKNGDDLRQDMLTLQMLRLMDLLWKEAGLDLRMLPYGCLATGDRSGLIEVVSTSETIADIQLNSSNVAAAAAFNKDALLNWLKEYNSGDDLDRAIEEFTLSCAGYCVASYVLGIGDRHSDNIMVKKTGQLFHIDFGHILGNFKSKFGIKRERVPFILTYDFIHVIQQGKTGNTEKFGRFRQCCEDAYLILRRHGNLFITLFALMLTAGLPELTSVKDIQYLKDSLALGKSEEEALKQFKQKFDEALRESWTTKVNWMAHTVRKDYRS
protocol: Inhibition of PI3Kbeta assessed as enzyme activity at 10 uM relative to control
Design: scale not given: the % may be the effect or the level left
measuredAttribute: Activity (%)

Past entries and their recorded results:
O=S(=O)(Nc1cncc(-c2cnc3[nH]ccc3c2)c1)c1ccccc1 :: 4.9
CC(=O)Nc1ncc(-c2cncc(NS(=O)(=O)c3ccccc3)c2)cn1 :: 34
Cc1ccc(S(=O)(=O)Nc2cncc(-c3cnc(N)nc3)c2)cc1 :: 0.5
Nc1ncc2cc(-c3cncc(NS(=O)(=O)c4ccccc4)c3)ccc2n1 :: 0
CS(=O)(=O)Nc1cncc(-c2cnc(N)nc2)c1 :: 28
Cc1ccc(S(=O)(=O)Nc2cncc(-c3cnc(N)nc3)c2)cc1[N+](=O)[O-] :: 0.7
CC(=O)Nc1cncc(-c2cnc(N)nc2)c1 :: 69
Nc1ncc(-c2cncc(NS(=O)(=O)c3cccc(C(F)(F)F)c3)c2)cn1 :: 1.2

A = O=S(=O)(Nc1cncc(-c2cccnc2)c1)c1ccccc1
B = COc1ccc(S(=O)(=O)Nc2cncc(-c3cnc(N)nc3)c2)cc1
C = Nc1cncc(-c2cnc(N)nc2)c1
**Q:** Could you please order the items by Activity, going from the lowest number to the highest? // format: requested-order list of labels
**A:** B, A, C
(B: 1.7%, A: 7.4%, C: 86%)
